src = patent US20230312578A1

ASSAY: Human tumor cell line growth assay (SRB)
Type: cell-based
SETTINGS: human, NCI-H226 cells (NSCLC), NCI-H226, 48 h, read-out: LC50

MOLECULE: Cc1cc2nc3c4cc(N)ccc4n(CCN(C)C)c3nc2cc1C
RELATION: >
CC50 at 48 h (µM): 100

MOLECULE: COc1ccc2c(c1)c1nc3cc(C)c(C)cc3nc1n2CCN(C)C
RELATION: =
CC50 at 48 h (µM): 8.2

MOLECULE: Cc1cc2nc3c4cc([N+](=O)[O-])ccc4n(CCN(C)C)c3nc2cc1C
RELATION: >
CC50 at 48 h (µM): 100

MOLECULE: Cc1cc2nc3c4cc(O)ccc4n(CCN(C)C)c3nc2cc1C
RELATION: =
CC50 at 48 h (µM): 19.5

MOLECULE: Cc1cc2nc3c4ccccc4n(CCN(C)C)c3nc2cc1C [B220, reference compound]
RELATION: >
CC50 at 48 h (µM): 100
